Parameter TGI: see the listing below.
Tested on: PC-3 human hormone-resistant prostate cancer cell line
assay-remarks: MTT cytostatic-cytotoxic activity, PC-3
Format: cell-based
test-conditions: PC-3, 48 h treatment
measured-metric: TGI

                         compound_structure  meas_value
0  COc1cc(Cc2nnc3sc(-c4ccc(Cl)cc4)nn23)c(S(=O)(=O)N(C)C)cc1OC       45 µM
1  COc1cc(Cc2nnc3sc(/C=C/c4ccc(F)cc4)nn23)c(S(=O)(=O)N(C)C)cc1OC       24 µM
2  COc1cc(Cc2nnc3sc(/C=C/c4cccc(F)c4)nn23)c(S(=O)(=O)N(C)C)cc1OC     >100 µM
3  COc1ccc(Cc2nn3c(Cc4cc(OC)c(OC)cc4S(=O)(=O)N(C)C)nnc3s2)cc1     >100 µM

* * *

Tested on: UWB1.289 + BRCA1 human ovarian cancer cell line
assay-remarks: MTT cytostatic-cytotoxic activity, UWB1.289+BRCA1
Type: cell-based
test-conditions: UWB1.289+BRCA1, 48 h treatment, kills 50% of the cells
Parameter IC50: see the listing below.
measured-metric: IC50

                         compound_structure  measured_metric  meas_value
0  COc1cc(Cc2nnc3sc(CC=Cc4ccccc4)nn23)c(S(=O)(=O)N(C)C)cc1OC             IC50       42 µM
1  COc1cc(Cc2nnc3sc(/C=C/c4cccc(F)c4)nn23)c(S(=O)(=O)N(C)C)cc1OC             IC50    > 100 µM
2  COc1cc(Cc2nnc3sc(-c4ccccn4)nn23)c(S(=O)(=O)N(C)C)cc1OC             IC50    > 100 µM

* * *

Test system: PC-3 human hormone-resistant prostate cancer cell line
assay-remarks: MTT cytostatic-cytotoxic activity, PC-3
Assay type: cell-based
test-conditions: PC-3, 48 h treatment
measured-metric: TGI

In [3]: df
Out[3]:
                         compound_structure  meas_value
0  COc1cc(Cc2nnc3sc(Cc4ccccc4)nn23)c(S(=O)(=O)N(C)C)cc1OC     >100 µM
1  COc1cc(Cc2nnc3sc(-c4ccccc4)nn23)c(S(=O)(=O)N(C)C)cc1OC     >100 µM
2  COc1cc(Cc2nnc3sc(-c4ccc(N)cc4)nn23)c(S(=O)(=O)N(C)C)cc1OC     >100 µM
3  COc1cc(Cc2nnc3sc(-c4ccccc4N)nn23)c(S(=O)(=O)N(C)C)cc1OC     >100 µM
4  COc1cc(Cc2nnc3sc(-c4ccccn4)nn23)c(S(=O)(=O)N(C)C)cc1OC     >100 µM
5  COc1cc(Cc2nnc3sc(/C=C/c4ccc(Cl)cc4)nn23)c(S(=O)(=O)N(C)C)cc1OC       47 µM
6  COc1cc(Cc2nnc3sc(-c4cccc(Cl)c4)nn23)c(S(=O)(=O)N(C)C)cc1OC     >100 µM
7  COc1cc(Cc2nnc3sc(CC=Cc4ccccc4)nn23)c(S(=O)(=O)N(C)C)cc1OC       31 µM

* * *

Tested on: MCF-7 human breast cancer cell line
assay-remarks: MTT cytostatic-cytotoxic activity, MCF-7
Type: cell-based
test-conditions: Homo sapiens, MCF7, MCF-7, 48 h treatment, kills 50% of the cells
Parameter IC50: see the listing below.
measured-metric: IC50

>>> print(df.to_string())
                         compound_structure  measured_metric  meas_value
0  COc1cc(Cc2nnc3sc(/C=C/c4ccc(F)cc4)nn23)c(S(=O)(=O)N(C)C)cc1OC             IC50       86 µM
1  COc1cc(Cc2nnc3sc(-c4ccccc4N)nn23)c(S(=O)(=O)N(C)C)cc1OC             IC50    > 100 µM
2  COc1ccc(Cc2nn3c(Cc4cc(OC)c(OC)cc4S(=O)(=O)N(C)C)nnc3s2)cc1             IC50    > 100 µM
3  COc1cc(Cc2nnc3sc(-c4ccc(N)cc4)nn23)c(S(=O)(=O)N(C)C)cc1OC             IC50    > 100 µM

* * *

System: MCF-7 human breast cancer cell line
assay-remarks: MTT cytostatic-cytotoxic activity, MCF-7
Type: cell-based
test-conditions: MCF-7, 48 h treatment, kills 50% of the cells
measured-metric: IC50

>>> print(df.to_string())
                         compound_structure  measured_metric  meas_value
0  COc1cc(Cc2nnc3sc(CC=Cc4ccccc4)nn23)c(S(=O)(=O)N(C)C)cc1OC             IC50    > 100 µM
1  COc1cc(Cc2nnc3sc(/C=C/c4cccc(F)c4)nn23)c(S(=O)(=O)N(C)C)cc1OC             IC50    > 100 µM
2  COc1cc(Cc2nnc3sc(-c4ccccn4)nn23)c(S(=O)(=O)N(C)C)cc1OC             IC50    > 100 µM

* * *

Test system: A-549 human lung carcinoma cell line
assay-remarks: MTT cytostatic-cytotoxic activity, A-549
Assay type: cell-based
test-conditions: A-549, 48 h treatment, kills 50% of the cells
measured-metric: IC50

                         compound_structure  meas_value
0  COc1cc(Cc2nnc3sc(CC=Cc4ccccc4)nn23)c(S(=O)(=O)N(C)C)cc1OC       58 µM
1  COc1cc(Cc2nnc3sc(/C=C/c4cccc(F)c4)nn23)c(S(=O)(=O)N(C)C)cc1OC    > 100 µM
2  COc1cc(Cc2nnc3sc(-c4ccccn4)nn23)c(S(=O)(=O)N(C)C)cc1OC    > 100 µM

* * *

Tested on: T-47D human breast cancer cell line
assay-remarks: MTT cytostatic-cytotoxic activity, T-47D
Type: cell-based
test-conditions: 48 h treatment
Parameter GI50: see the listing below.
measured-metric: GI50

>>> df
                         compound_structure                    target_under_test  meas_value
0  COc1cc(Cc2nnc3sc(-c4cccc(Cl)c4)nn23)c(S(=O)(=O)N(C)C)cc1OC  T-47D human breast cancer cell line       60 µM
1  COc1cc(Cc2nnc3sc(CC=Cc4ccccc4)nn23)c(S(=O)(=O)N(C)C)cc1OC  T-47D human breast cancer cell line        8 µM
2  COc1cc(Cc2nnc3sc(/C=C/c4cccc(F)c4)nn23)c(S(=O)(=O)N(C)C)cc1OC  T-47D human breast cancer cell line       48 µM
3  COc1cc(Cc2nnc3sc(-c4ccccn4)nn23)c(S(=O)(=O)N(C)C)cc1OC  T-47D human breast cancer cell line    > 100 µM

* * *

Tested on: UWB1.289 human ovarian cancer cell line (mutant BRCA1)
assay-remarks: MTT cytostatic-cytotoxic activity, UWB1.289
Assay type: cell-based
test-conditions: UWB1.289, 48 h treatment, kills 50% of the cells
pIC50: −log10 of the molar value.
Parameter pIC50: see the listing below.
measured-metric: pIC50

                         compound_structure  measured_metric  meas_value
0  COc1cc(Cc2nnc3sc(CC=Cc4ccccc4)nn23)c(S(=O)(=O)N(C)C)cc1OC            pIC50      < 4.00
1  COc1cc(Cc2nnc3sc(-c4ccccn4)nn23)c(S(=O)(=O)N(C)C)cc1OC            pIC50      < 4.00
2  COc1cc(Cc2nnc3sc(/C=C/c4cccc(F)c4)nn23)c(S(=O)(=O)N(C)C)cc1OC            pIC50      < 4.00

* * *

Test system: OVCAR-3 human ovarian cancer cell line
assay-remarks: MTT cytostatic-cytotoxic activity, OVCAR-3
Assay type: cell-based
test-conditions: OVCAR-3, 48 h treatment
Parameter TGI: see the listing below.
measured-metric: TGI

>>> df
                         compound_structure                       target_under_test  measured_metric  meas_value
0  COc1cc(Cc2nnc3sc(-c4ccccc4)nn23)c(S(=O)(=O)N(C)C)cc1OC  OVCAR-3 human ovarian cancer cell line              TGI     >100 µM
1  COc1cc(Cc2nnc3sc(-c4cccc(Cl)c4)nn23)c(S(=O)(=O)N(C)C)cc1OC  OVCAR-3 human ovarian cancer cell line              TGI     >100 µM
2  COc1cc(Cc2nnc3sc(/C=C/c4cccc(F)c4)nn23)c(S(=O)(=O)N(C)C)cc1OC  OVCAR-3 human ovarian cancer cell line              TGI     >100 µM
3  COc1cc(Cc2nnc3sc(-c4ccc(N)cc4)nn23)c(S(=O)(=O)N(C)C)cc1OC  OVCAR-3 human ovarian cancer cell line              TGI     >100 µM
4  COc1cc(Cc2nnc3sc(CC=Cc4ccccc4)nn23)c(S(=O)(=O)N(C)C)cc1OC  OVCAR-3 human ovarian cancer cell line              TGI       12 µM
5  COc1cc(Cc2nnc3sc(/C=C/c4ccc(Cl)cc4)nn23)c(S(=O)(=O)N(C)C)cc1OC  OVCAR-3 human ovarian cancer cell line              TGI       87 µM
6  COc1ccc(Cc2nn3c(Cc4cc(OC)c(OC)cc4S(=O)(=O)N(C)C)nnc3s2)cc1  OVCAR-3 human ovarian cancer cell line              TGI       86 µM
7  COc1cc(Cc2nnc3sc(-c4ccccn4)nn23)c(S(=O)(=O)N(C)C)cc1OC  OVCAR-3 human ovarian cancer cell line              TGI     >100 µM

Just for reference, patent US10513529B2 is where these values come from.
